Here, each record is paired with measured half-life data.
assay_summary: Pharmacokinetic experiment in rats
Format: in vivo, Sprague-Dawley rats
condition_context: male, Sprague-Dawley, plasma; rat, PO 10 mg/kg
Method: Six male Sprague-Dawley rats, 7 to 8 weeks old, weighing approximately 210 g, were divided into 2 groups with 3 rats in each group. […] Immediately after the collection of the blood samples, the test tubes were gently inverted at least 5 times to ensure the fully mixing and placed on ice. […] Pharmacokinetic parameters were calculated based on the plasma concentrations of each animal at different time points.
Field format: number, assumed h, no unit text.

- molecule: "CCc1nc(C(N)=O)c(Nc2ccc(N3CCC(N4CCN(C)CC4)CC3)c(OC)c2)nc1NC1CCOCC1 [Gilteritinib, reference compound]"
  half-life (h): 5.76

What measured half-life goes with [2H]C([2H])([2H])C([2H])([2H])c1nc(C(N)=O)c(Nc2ccc(N3CCC(N4CCN(C)CC4)CC3)c(OC)c2)nc1NC1CCOCC1 [Compound T-4] ? 4.07

For [2H]C([2H])([2H])Oc1cc(Nc2nc(NC3CCOCC3)c(CC)nc2C(N)=O)ccc1N1CCC(N2CCN(C)CC2)CC1 [Compound T-1] , what is its reported half-life? 5.93
